Study system: T1, human APJ receptor (human, UniProt P35414 1-380)
T1 sequence (looked up): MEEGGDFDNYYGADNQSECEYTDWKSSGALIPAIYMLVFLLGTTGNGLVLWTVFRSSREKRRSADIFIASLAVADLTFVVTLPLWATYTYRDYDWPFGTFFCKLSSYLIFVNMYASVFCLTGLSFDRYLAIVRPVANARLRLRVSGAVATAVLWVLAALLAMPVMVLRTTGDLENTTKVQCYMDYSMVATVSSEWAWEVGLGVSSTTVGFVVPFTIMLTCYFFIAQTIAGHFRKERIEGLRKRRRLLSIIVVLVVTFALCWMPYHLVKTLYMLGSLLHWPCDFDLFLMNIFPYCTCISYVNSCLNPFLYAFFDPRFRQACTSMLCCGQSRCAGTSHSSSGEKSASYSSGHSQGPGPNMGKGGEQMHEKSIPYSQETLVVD
Assay details: cell-based or functional assay
Starred links: 1 amine or outer side, 2 acyl side, 3 side chain; linkers in the order of their positions; H or OH if unused. Non-standard residues stand in square brackets, D forms with d. No end group written: not given here. Atz = 3-(1,2,3-triazol-4-yl)alanine, O=C([C@H](Cc1c[nH]nn1)N[*:1])[*:2]; dBip = N[C@H](Cc1ccc(-c2ccccc2)cc1)C(=O)O; Oic = O=C(O)[C@@H]1C[C@@H]2CCCC[C@@H]2N1; Phe(4-Cl) = N[C@@H](Cc1ccc(Cl)cc1)C(=O)O; Phe(4-I) = N[C@@H](Cc1ccc(I)cc1)C(=O)O; NMeR = CN[C@@H](CCCNC(=N)N)C(=O)O; hArg = N=C(N)NCCCC[C@H](N)C(=O)O; β3hR = N=C(N)NCCC[C@H](N)CC(=O)O; Cha = N[C@@H](CC1CCCCC1)C(=O)O; β3hQ = NC(=O)CC[C@H](N)CC(=O)O; NMeL = CN[C@@H](CC(C)C)C(=O)O; αMeOrn = C[C@](N)(CCCN)C(=O)O; β3hS = N[C@@H](CO)CC(=O)O; Nle = CCCC[C@H](N)C(=O)O; Orn = NCCC[C@H](N)C(=O)O; βAla = NCCC(=O)O; Mpa = O=C(O)CCS
Measured metric: EC50 Human APJ Receptor (nM)
Field format: number, assumed nM, no unit text.

| Binder | EC50 Human APJ Receptor (nM) |
| --- | --- |
| [Orn]F[hArg][hArg]Q[hArg]P[hArg][Cha][βAla]HKG[Oic][Nle]P[Phe(4-Cl)] [apelin polypeptide SEQ ID NO: 699] | 0.44 |
| Ac-[hArg][hArg]Q[dR]P[dR][NMeL]SHKG[Oic][Phe(4-I)]P[dBip]-OH [apelin polypeptide SEQ ID NO: 20] | 0.189 |
| {20K mPEGacetamide}-[Mpa]QRP[hArg][Cha]SHKG[Oic][Nle]P[Phe(4-Cl)]-OH (numbers in words are those of the source; also: 20 kDa PEG conjugate) [apelin polypeptide SEQ ID NO: 101] | 46.7 |
| [Orn]F[hArg][hArg]Q[hArg]P[hArg][Cha][β3hS]HKG[Oic][Nle]P[Phe(4-Cl)] [apelin polypeptide SEQ ID NO: 698] | 0.539 |
| Ac-[Orn]F[hArg][hArg]Q[hArg]P[hArg][Cha]SH[αMeOrn]G[Oic][Nle]P[Phe(4-Cl)]-OH [apelin polypeptide SEQ ID NO: 36] | 0.355 |
| Ac-[Atz](20K‑mPEG)KFRRQRP[hArg][Cha]SHKG[Oic][Nle]P[Phe(4-Cl)]-OH [apelin polypeptide SEQ ID NO: 105] | 0.187 |
| Ac-[hArg]Q[dR]P[NMeR][Cha]SHKG[Oic][Nle]P[Phe(4-Cl)]-OH [apelin polypeptide SEQ ID NO: 23] | 0.384 |
| [Orn]F[hArg][β3hR]Q[hArg]P[hArg][Cha]SHKG[Oic][Nle]P[Phe(4-Cl)] [apelin polypeptide SEQ ID NO: 689] | 0.114 |
| [Orn]F[hArg][hArg][β3hQ][hArg]P[hArg][Cha]SHKG[Oic][Nle]P[Phe(4-Cl)] [apelin polypeptide SEQ ID NO: 690] | 0.111 |

Moving on to another binder below.
Input line: State the recorded EC50 Human APJ Receptor for this entry: Ac-[hArg][hArg][dQ][hArg]P[dR][NMeL]SHKG[Oic][Phe(4-I)]P[dBip]-OH [apelin polypeptide SEQ ID NO: 19]
Output line: 0.533
